- method-notes: Equilibrium solubility in full range (fasted to fed) design of experiment simulated intestinal media
- Format: physicochemical
- conditions: full range DoE, standardised effect
endpoint-label: Effect of sodium oleate on equilibrium solubility

{"molecule": "CN1CC(=O)N2[C@H](c3ccc4c(c3)OCO4)c3[nH]c4ccccc4c3C[C@@H]2C1=O [Tadalafil, tadalafil]", "result": "positively affected"}
{"molecule": "C[C@@H](O[C@H]1OCCN(Cc2n[nH]c(=O)[nH]2)[C@H]1c1ccc(F)cc1)c1cc(C(F)(F)F)cc(C(F)(F)F)c1 [Aprepitant, aprepitant]", "result": "positively affected"}
{"molecule": "COc1ccccc1OCCNCC(O)COc1cccc2[nH]c3ccccc3c12 (stereo not shown) [Carvedilol, carvedilol]", "result": "positively affected"}

* * *

- method-notes: Equilibrium solubility in full range (fasted to fed) design of experiment simulated intestinal media
- Format: physicochemical
- conditions: Mann-Whitney test on equilibrium solubility distributions
endpoint-label: Comparison of combined fasted and fed solubility data with the full range DoE

{"compound": "CCOC(=O)C1=C(C)NC(C)=C(C(=O)OC)C1c1cccc(Cl)c1Cl (centres unmarked)", "result": "significantly different"}
{"compound": "C[C@@H](O[C@H]1OCCN(Cc2n[nH]c(=O)[nH]2)[C@H]1c1ccc(F)cc1)c1cc(C(F)(F)F)cc(C(F)(F)F)c1 [Aprepitant, aprepitant]", "result": "significantly different"}
{"compound": "CN1CC(=O)N2[C@H](c3ccc4c(c3)OCO4)c3[nH]c4ccccc4c3C[C@@H]2C1=O", "result": "significantly different"}

* * *

- method-notes: Equilibrium solubility in full range (fasted to fed) design of experiment simulated intestinal media
- Format: physicochemical
- conditions: full range DoE, Fig. 1 and 2
endpoint-label: Variability of equilibrium solubility values

{"compound": "CN1CC(=O)N2[C@H](c3ccc4c(c3)OCO4)c3[nH]c4ccccc4c3C[C@@H]2C1=O [Tadalafil, tadalafil]", "result": "large variability"}
{"compound": "CCOC(=O)C1=C(C)NC(C)=C(C(=O)OC)C1c1cccc(Cl)c1Cl (stereo not shown) [Felodipine, felodipine]", "result": "large variability"}

* * *

- method-notes: Equilibrium solubility in full range (fasted to fed) design of experiment simulated intestinal media
- Assay type: physicochemical
- conditions: full range DoE, standardised effect, pH 5 to 7

{"molecule": "COc1cc(C(=O)NS(=O)(=O)c2ccccc2C)ccc1Cc1cn(C)c2ccc(NC(=O)OC3CCCC3)cc12", "Effect of pH on equilibrium solubility": "significant effect"}
{"molecule": "C[C@@H](O[C@H]1OCCN(Cc2n[nH]c(=O)[nH]2)[C@H]1c1ccc(F)cc1)c1cc(C(F)(F)F)cc(C(F)(F)F)c1 [Aprepitant, aprepitant]", "Effect of pH on equilibrium solubility": "significant effect"}
{"molecule": "CN1CC(=O)N2[C@H](c3ccc4c(c3)OCO4)c3[nH]c4ccccc4c3C[C@@H]2C1=O", "Effect of pH on equilibrium solubility": "not"}
{"molecule": "COc1ccccc1OCCNCC(O)COc1cccc2[nH]c3ccccc3c12 (centres unmarked)", "Effect of pH on equilibrium solubility": "significant effect"}

Numbers sourced from paper PMC5710999.
